biological target: the molecule itself; experiment: Blue-Native-PAGE, oligomeric conformation (self-association of identical chains)
attribute-measured: binding result

protein	recorded-result
alpha/beta hydrolase variant of SEQ ID NO: 12 (N167S, S174C) (enzyme, homo-tetramer; also called zearalenone-cleaving polypeptide) MTDQSPETRDIFVPHAFEEQQVDLGEVVMNYVEAGSADHPALLLLPEQTGSWWSYEPVIGLLAESFHVFAVDIRGQGRSTWTPKRYSLDNFGNDLVRFISLVVKRPVIVSGNSSGGVLAAWLSAYAMPGQIRAALCEDTPFFASELVPAHGHSVRQAAGPAFELYRSFLGDQWCVADWDGFAAAAKASPSKIMSLFPSSDEPPQNLKEYDPEWARAFFEGTVALHCPHDLMLSQVKTPILITHHARAVDPHSGDLLGALSDFQAERAQAIIESAGVPVEYASFPDALHMMHQFEPERFAEVLTSWVARLPADTPGAHHHHHH	binds
alpha/beta hydrolase variant of SEQ ID NO: 2 (N167T, F168Y, S174C, F218Y) (enzyme, homo-tetramer; also called zearalenone-cleaving polypeptide) MTDQSPETRDIFVPHAFEEQQVDLGEVVMNYVEAGSADHPALLLLPEQTGSWWSYEPVIGLLAESFHVFAVDIRGQGRSTWTPKRYSLDNFGNDLVRFISLVVKRPVIVSGNSSGGVLAAWLSAYAMPGQIRAALCEDTPFFASELVPAHGHSVRQAAGPAFELYRTYLGDQWCVADWDGFAAAAKASPSKIMSLFPSSDEPPQNLKEYDPEWARAFYEGTVALHCPHDLMLSQVKTPILITHHARAVDPHSGDLLGALSDFQAERAQAIIESAGVPVEYASFPDALHMMHQFEPERFAEVLTSWVARLPADTPGAHHHHHH	binds
